Target Or Test System: T1, human sortilin stably expressed on HEK 293 cells (HEK-SORT1 cells) (human, UniProt Q99523 78-831)
T1 sequence (looked up): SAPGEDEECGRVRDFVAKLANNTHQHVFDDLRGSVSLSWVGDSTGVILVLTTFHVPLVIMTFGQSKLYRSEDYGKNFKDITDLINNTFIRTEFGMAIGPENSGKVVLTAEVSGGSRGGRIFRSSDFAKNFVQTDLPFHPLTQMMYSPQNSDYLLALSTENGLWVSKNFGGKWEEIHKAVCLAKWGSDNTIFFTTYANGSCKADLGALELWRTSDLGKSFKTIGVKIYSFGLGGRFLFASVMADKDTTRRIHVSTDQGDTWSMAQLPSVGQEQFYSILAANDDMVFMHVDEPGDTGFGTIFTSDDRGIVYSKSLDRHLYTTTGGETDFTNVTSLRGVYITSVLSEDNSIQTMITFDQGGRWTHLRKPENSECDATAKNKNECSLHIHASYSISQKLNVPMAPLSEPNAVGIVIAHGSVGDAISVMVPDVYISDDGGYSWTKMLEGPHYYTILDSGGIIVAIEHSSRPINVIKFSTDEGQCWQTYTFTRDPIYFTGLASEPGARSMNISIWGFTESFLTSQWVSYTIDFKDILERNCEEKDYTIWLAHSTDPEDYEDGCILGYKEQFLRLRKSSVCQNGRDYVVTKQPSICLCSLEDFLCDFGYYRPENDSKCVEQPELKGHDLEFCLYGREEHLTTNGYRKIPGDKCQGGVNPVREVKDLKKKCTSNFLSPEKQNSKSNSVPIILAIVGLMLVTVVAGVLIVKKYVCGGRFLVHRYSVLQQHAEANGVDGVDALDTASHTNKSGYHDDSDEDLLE
Experimental Protocol: cell-based or functional assay
Ends that are not written are not given here.
Respond with 1.0 for Mean Fluorescence Intensity (MFI), uptake 37C-4C, at 111 nM values of 200 MFI and above, 0.0 for values below.

Observe how each entry below is paired with its result.
{"Binder": "LYENXPRRPYIL (not fully specified; position 1 is SO5P (5-oxoproline); internal lysine (LYEN-K) side chain azido-acetyl joined via triazolo-BCN carbamate / 6-aminohexanol linker to 5' end of … (SEQ ID NO 2, uniform MOE, phosphodiester, 3'-Cy3))", "Assigned Class": 0.0}
{"Binder": "XLYENKPRRPYIL (not fully specified; position 1 printed dK (X = 2-azido-acetyl lysine); side chain joined via triazolo-BCN carbamate / 6-aminohexanol linker to the 5' end of oligonucleotide … (SEQ ID NO 2, uniform MOE, phosphodiester, 3'-Cy3))", "Assigned Class": 0.0}
{"Binder": "KPPPAGSSPGLYENKPRRPYIL (not fully specified (residue 1); also: Cy3 label attached by BCN click to the azide) [Compound 17-AH-1492, Cy3-labeled extended neurotensin (eNT, …)]", "Assigned Class": 1.0}

Test whether the binder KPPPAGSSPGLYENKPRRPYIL (not fully specified (residue 1); also: X side chain clicked via BCN (triazole) and 6-aminohexanol linker to 5' end of oligonucleotide CCAGGCTGGTTATGACTCAG (MOE, 3'-Cy3)) records Mean Fluorescence Intensity (MFI), uptake 37C-4C, at 111 nM of 200 MFI or higher.
1.0

Mean Fluorescence Intensity (MFI), uptake 37C-4C, at 111 nM >= 200 MFI for LYENXPRRPYIL (not fully specified; position 1 is SO5P (5-oxoproline); internal lysine (LYEN-K) carries the azido-acetyl group joined to Cy3-BCN reagent (Cy3 label)) [Compound 17-AE-9199, Cy3-labeled [SO5P]LYEN[azido-acetyl-K]PRRPYIL peptide] ?
1.0
